A collection of variants and their measured protein stability index
B1: SCARA5 (parent)
chain: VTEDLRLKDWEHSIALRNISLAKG

variants of: B1; experiment: protein stability index of a GFP-peptide fusion (GPS, HEK-293T) (PSI 1-6); higher = more stable; details: c terminus: a fixed tail appended;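 also: lentivirally expressed fusions sorted by FACS into six bins by GFP to DsRed ratio, PSI derived from sequencing read proportions per bin multiplied by bin number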

Worked examples follow.
E3N	3.03
A15E	3.14
L21R	3.56
I19P	3.9
E3H	3.03
H12D	3.75
E11Y	2.57
V1L	3.26
L5H	3.91
K23F	2.35

Which protein stability index value is on record for "S13T" ?
3.41

Which protein stability index value is on record for "V1A" ?
3.77

Which protein stability index value is on record for "D4L" ?
2.26

Which protein stability index value is on record for "T2M" ?
3.38

Which protein stability index value is on record for "S13L" ?
2.93

Which protein stability index value is on record for "K23Q" ?
3.09

Which protein stability index value is on record for "D9C" ?
3.09

Which protein stability index value is on record for "E3V" ?
1.69

Which protein stability index value is on record for "K23W" ?
2.22

Which protein stability index value is on record for "V1H" ?
3.89

Which protein stability index value is on record for "S20A" ?
3.81

Which protein stability index value is on record for "G24K" ?
3.65

Where do the numbers come from? From the supplement of paper PMC10567573.
